Molecular target: Cyclophilin A (Homo sapiens)
Construct: made in house
Sequence (P62937 whole entry, species assumed): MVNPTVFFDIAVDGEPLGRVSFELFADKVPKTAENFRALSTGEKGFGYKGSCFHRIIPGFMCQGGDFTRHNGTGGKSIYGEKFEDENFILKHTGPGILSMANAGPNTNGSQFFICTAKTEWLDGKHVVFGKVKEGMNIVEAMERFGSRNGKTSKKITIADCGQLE
Assay: AlphaLISA inhibition of binding of biotinylated Cyclosporin A to FLAG tagged Cyclophilin A
Settings: test concentration not given
Where a SMILES comes first, the peptide text is derived from it. [ ]: non-standard residue; d: D form. MeBmt = C/C=C/C[C@@H](C)[C@@H](O)[C@H](NC)C(=O)O; NMeF = CN[C@@H](Cc1ccccc1)C(=O)O; NMeL = CN[C@@H](CC(C)C)C(=O)O; NMeNva = CCC[C@H](NC)C(=O)O; NMeV = CN[C@H](C(=O)O)C(C)C; NMeA = CN[C@@H](C)C(=O)O; dNMeA = CN[C@H](C)C(=O)O; Abu = CC[C@H](N)C(=O)O; Sar = CNCC(=O)O
experimentalEndpoint: % inhibition of CsA binding to Cyclophilin A (%)

compound | recordedMeasurement
C/C=C/C[C@@H](C)[C@@H](O)[C@H]1C(=O)N[C@@H](CC)C(=O)N(C)CC(=O)N(C)[C@H](C)C(=O)N[C@@H](C(C)C)C(=O)N(C)[C@@H](CC(C)C)C(=O)N[C@@H](CC)C(=O)N[C@H](C)C(=O)N(C)[C@@H](CC(C)C)C(=O)N(C)[C@@H](CC(C)C)C(=O)N(C)[C@@H](C(C)C)C(=O)N1C [Compound C95] (cyclo([Abu][Sar][dNMeA]V[NMeL][Abu][dA][NMeL][NMeL][NMeV][MeBmt])) | 93.10
C/C=C/C[C@@H](C)[C@@H](O)[C@H]1C(=O)N[C@@H](CC)C(=O)N(C)CC(=O)N(C)[C@@H](Cc2ccccc2)C(=O)N[C@@H](CC(C)C)C(=O)N(C)[C@@H](CC(C)C)C(=O)N[C@@H](CC(C)C)C(=O)N[C@H](C)C(=O)N(C)[C@@H](CC(C)C)C(=O)N(C)[C@@H](CC(C)C)C(=O)N(C)[C@@H](C(C)C)C(=O)N1C [Compound C60] (cyclo([MeBmt][Abu][Sar][NMeF]L[NMeL]L[dA][NMeL][NMeL][NMeV])) | 47.32
C/C=C/C[C@@H](C)[C@@H](O)[C@H]1C(=O)N[C@@H](CC)C(=O)N(C)CC(=O)N(C)[C@@H](CCC)C(=O)N[C@@H](C(C)C)C(=O)N(C)[C@@H](C)C(=O)N[C@@H](CC(C)C)C(=O)N[C@H](C)C(=O)N(C)[C@@H](CC(C)C)C(=O)N(C)[C@@H](CC(C)C)C(=O)N(C)[C@@H](C(C)C)C(=O)N1C [Compound C90] (cyclo([Abu][Sar][NMeNva]V[NMeA]L[dA][NMeL][NMeL][NMeV][MeBmt])) | 93.54

* * *

Molecular target: Cyclophilin A (Homo sapiens)
Construct: made in house
Assay: AlphaLISA inhibition of binding of biotinylated Cyclosporin A to FLAG tagged Cyclophilin A
Settings: test concentration not given
Where a SMILES comes first, the peptide text is derived from it. [ ]: non-standard residue; d: D form. MeBmt = C/C=C/C[C@@H](C)[C@@H](O)[C@H](NC)C(=O)O; NMeT = CN[C@H](C(=O)O)[C@@H](C)O; NMeL = CN[C@@H](CC(C)C)C(=O)O; NMeV = CN[C@H](C(=O)O)C(C)C; NMeA = CN[C@@H](C)C(=O)O; Abu = CC[C@H](N)C(=O)O; Sar = CNCC(=O)O
Parameter: % inhibition of CsA binding to Cyclophilin A. Scope: all listed entries.
experimentalEndpoint: % inhibition of CsA binding to Cyclophilin A (%)

molecule | recordedMeasurement
C/C=C/C[C@@H](C)[C@@H](O)[C@H]1C(=O)N[C@@H](CC)C(=O)N(C)CC(=O)N(C)[C@@H]([C@@H](C)O)C(=O)N[C@@H](C(C)C)C(=O)N(C)[C@@H](C)C(=O)N[C@@H](CC(C)C)C(=O)N[C@H](C)C(=O)N(C)[C@@H](CC(C)C)C(=O)N(C)[C@@H](CC(C)C)C(=O)N(C)[C@@H](C(C)C)C(=O)N1C [Compound C87] (cyclo([MeBmt][Abu][Sar][NMeT]V[NMeA]L[dA][NMeL][NMeL][NMeV])) | 95.47
C/C=C/C[C@@H](C)[C@@H](O)[C@H]1C(=O)N[C@@H](CC)C(=O)N(C)CC(=O)N(C)[C@@H](CC(C)C)C(=O)N[C@@H](C(C)C)C(=O)N(C)[C@@H](C)C(=O)N[C@@H](CC(C)C)C(=O)N[C@H](C)C(=O)N(C)[C@@H](CC(C)C)C(=O)N(C)[C@@H](CC(C)C)C(=O)N(C)[C@@H](C(C)C)C(=O)N1C [Compound C86] (cyclo([MeBmt][Abu][Sar][NMeL]V[NMeA]L[dA][NMeL][NMeL][NMeV])) | 82.77
C/C=C/C[C@@H](C)[C@@H](O)[C@H]1C(=O)N[C@@H](CC)C(=O)N(C)CC(=O)N(C)[C@@H](CC(C)C)C(=O)N[C@@H](C(C)C)C(=O)N(C)CC(=O)N[C@@H](C)C(=O)N[C@H](C)C(=O)N(C)[C@@H](CC(C)C)C(=O)N(C)[C@@H](CC(C)C)C(=O)N(C)[C@@H](C(C)C)C(=O)N1C | 99.94

* * *

Target: Cyclophilin A (Homo sapiens)
Construct: made in house
Assay: AlphaLISA inhibition of binding of biotinylated Cyclosporin A to FLAG tagged Cyclophilin A
Conditions: AlphaLISA signal; test concentration not given
Where a SMILES comes first, the peptide text is derived from it. [ ]: non-standard residue; d: D form. MeBmt = C/C=C/C[C@@H](C)[C@@H](O)[C@H](NC)C(=O)O; NMeL = CN[C@@H](CC(C)C)C(=O)O; NMeV = CN[C@H](C(=O)O)C(C)C; dNMeA = CN[C@H](C)C(=O)O; Abu = CC[C@H](N)C(=O)O; Sar = CNCC(=O)O

compound | units | % signal
C/C=C/C[C@@H](C)[C@@H](O)[C@H]1C(=O)N[C@@H](CC)C(=O)N(C)CC(=O)N(C)[C@H](C)C(=O)N[C@@H](C)C(=O)N(C)CC(=O)N[C@@H](C)C(=O)N[C@H](C)C(=O)N(C)[C@@H](CC(C)C)C(=O)N(C)[C@@H](CC(C)C)C(=O)N(C)[C@@H](C(C)C)C(=O)N1C [Compound C19] (cyclo([MeBmt][Abu][Sar][dNMeA]A[Sar]A[dA][NMeL][NMeL][NMeV])) | % | 16.79
C/C=C/C[C@@H](C)[C@@H](O)[C@H]1C(=O)N[C@@H](CC)C(=O)N(C)CC(=O)N(C)[C@H](C)C(=O)N[C@@H](CC(C)C)C(=O)N(C)[C@@H](CC(C)C)C(=O)N[C@@H](CC(C)C)C(=O)N[C@H](C)C(=O)N(C)[C@@H](CC(C)C)C(=O)N(C)[C@@H](CC(C)C)C(=O)N(C)[C@@H](C(C)C)C(=O)N1C [Compound C59] (cyclo([MeBmt][Abu][Sar][dNMeA]L[NMeL]L[dA][NMeL][NMeL][NMeV])) | % | 11.76
C/C=C/C[C@@H](C)[C@@H](O)[C@H]1C(=O)N[C@@H](CC)C(=O)N(C)CC(=O)N(C)[C@@H](CCC)C(=O)N[C@@H](C(C)C)C(=O)N(C)[C@@H](CC(C)C)C(=O)N[C@@H](C)C(=O)N[C@H](C)C(=O)N(C)[C@@H](CC(C)C)C(=O)N(C)[C@@H](CC(C)C)C(=O)N(C)[C@@H](C(C)C)C(=O)N1C | % | −0.07

* * *

Target: Cyclophilin A (Homo sapiens)
pIC50: −log10 of the molar value. Where a SMILES comes first, the peptide text is derived from it. [ ]: non-standard residue; d: D form. MeBmt = C/C=C/C[C@@H](C)[C@@H](O)[C@H](NC)C(=O)O; NMeY = CN[C@@H](Cc1ccc(O)cc1)C(=O)O; NMeL = CN[C@@H](CC(C)C)C(=O)O; dNMeV = CN[C@@H](C(=O)O)C(C)C; Tle = CC(C)(C)[C@H](N)C(=O)O; NMeNva = CCC[C@H](NC)C(=O)O; NMeV = CN[C@H](C(=O)O)C(C)C; NMeA = CN[C@@H](C)C(=O)O; Abu = CC[C@H](N)C(=O)O; Sar = CNCC(=O)O

compound | assayedSystem | pIC50
C/C=C/C[C@@H](C)[C@@H](O)[C@H]1C(=O)N[C@@H](CC)C(=O)N(C)CC(=O)N(C)[C@@H](CCC)C(=O)N[C@@H](C(C)(C)C)C(=O)N(C)[C@@H](C)C(=O)N[C@@H](CC(C)C)C(=O)N[C@H](C)C(=O)N(C)[C@@H](CC(C)C)C(=O)N(C)[C@@H](CC(C)C)C(=O)N(C)[C@@H](C(C)C)C(=O)N1C [Compound C78] (cyclo([MeBmt][Abu][Sar][NMeNva][Tle][NMeA]L[dA][NMeL][NMeL][NMeV])) | Cyclophilin A (Homo sapiens) | > 5.70
C/C=C/C[C@@H](C)[C@@H](O)[C@H]1C(=O)N[C@@H](CC)C(=O)N(C)CC(=O)N(C)[C@@H](Cc2ccc(O)cc2)C(=O)N[C@@H](C(C)C)C(=O)N(C)[C@@H](CC(C)C)C(=O)N[C@@H](CC(C)C)C(=O)N[C@H](C)C(=O)N(C)[C@@H](CC(C)C)C(=O)N(C)[C@@H](CC(C)C)C(=O)N(C)[C@@H](C(C)C)C(=O)N1C [Compound C52] (cyclo([MeBmt][Abu][Sar][NMeY]V[NMeL]L[dA][NMeL][NMeL][NMeV])) | Cyclophilin A (Homo sapiens) | > 5.70
C/C=C/C[C@@H](C)[C@@H](O)[C@H]1C(=O)N[C@@H](CC)C(=O)N(C)CC(=O)N(C)[C@@H](CC(C)C)C(=O)N[C@@H](C)C(=O)N(C)CC(=O)N[C@@H](C)C(=O)N[C@H](C)C(=O)N(C)[C@@H](CC(C)C)C(=O)N(C)[C@@H](CC(C)C)C(=O)N(C)[C@@H](C(C)C)C(=O)N1C [Compound C22] (cyclo([MeBmt][Abu][Sar][NMeL]A[Sar]A[dA][NMeL][NMeL][NMeV])) | Cyclophilin A (Homo sapiens) | > 5.70
C/C=C/C[C@@H](C)[C@@H](O)[C@H]1C(=O)N[C@@H](CC)C(=O)N(C)CC(=O)N(C)[C@H](C(C)C)C(=O)N[C@@H](C(C)C)C(=O)N(C)[C@@H](C)C(=O)N[C@@H](CC(C)C)C(=O)N[C@H](C)C(=O)N(C)[C@@H](CC(C)C)C(=O)N(C)[C@@H](CC(C)C)C(=O)N(C)[C@@H](C(C)C)C(=O)N1C [Compound C91] (cyclo([Abu][Sar][dNMeV]V[NMeA]L[dA][NMeL][NMeL][NMeV][MeBmt])) | Cyclophilin A (Homo sapiens) | > 5.70
C/C=C/C[C@@H](C)[C@@H](O)[C@H]1C(=O)N[C@@H](CC)C(=O)N(C)CC(=O)N(C)CC(=O)N[C@@H](C)C(=O)N(C)CC(=O)N[C@@H](C)C(=O)N[C@H](C)C(=O)N(C)[C@@H](CC(C)C)C(=O)N(C)[C@@H](CC(C)C)C(=O)N(C)[C@@H](C(C)C)C(=O)N1C [Compound C21] (cyclo([MeBmt][Abu][Sar][Sar]A[Sar]A[dA][NMeL][NMeL][NMeV])) | Cyclophilin A (Homo sapiens) | > 5.70
